Each recorded value in this set is attributed to patent US20250186627A1.

Test system: NRG-mice bearing LNCaP tumors
Test: Biodistribution (and PET/SPECT imaging) in NRG-mice bearing LNCaP tumors
Assay type: in vivo
Conditions: 72 h p.i., Avg
*1 amine or outer side, *2 acyl side, *3 side chain or, on linkers, in order; H or OH if unused. Where a SMILES comes first, the peptide text is derived from it. [ ]: non-standard residue; d: D form. The star is where a group is joined. ξ: configuration not given here. ξLys(Nα-CO-ξAad) = O=C(O)CCCC(NC(=O)NC(CCCCN*)C(=O)O)C(=O)O; Butanoyl(4-(4-NO2Ph)) = O=C(CCCc1ccc([N+](=O)[O-])cc1)*; DOTA = O=C(O)CN1CCN(CC(=O)O)CCN(CC(=O)*)CCN(CC(=O)O)CC1; ξAla(9-anthryl) = NC(Cc1c2ccccc2cc2ccccc12)C(=O)O; X1 = O=C(C1CCC(CN[*:1])CC1)[*:2]; ξK = NCCCCC(N)C(=O)O
Reported metric: Biodistribution: Intestine (% ID/g)
Write the number in % ID/g without appending the unit.

Molecule	Quantity unit	Value measured
O=C([O-])CN1CCN(CC(=O)[O-])CCN(CC(=O)NCCCCC(NC(=O)CNC(=O)CCCc2ccc([N+](=O)[O-])cc2)C(=O)NCC(=O)NCC2CCC(C(=O)NC(Cc3c4ccccc4cc4ccccc34)C(=O)NCCCCC(NC(=O)NC(CCCC(=O)O)C(=O)O)C(=O)O)CC2)CCN(CC(=O)[O-])CC1.[225Ac+3] (stereo not shown) [^225Ac-CCZ02017] ({Butanoyl(4-(4-NO2Ph))}-G[ξK](DOTA)G[X1][ξAla(9-anthryl)]-{ξLys(Nα-CO-ξAad)})	% ID/g	0.06

Query :: Requested field: Biodistribution: Intestine. Item: O=C([O-])CN1CCN(CC(=O)[O-])CCN(CC(=O)NCCCCC(NC(=O)CNC(=O)CCCc2ccc([N+](=O)[O-])cc2)C(=O)NCC(=O)NCC2CCC(C(=O)NC(Cc3c4ccccc4cc4ccccc34)C(=O)NCCCCC(NC(=O)NC(CCCC(=O)O)C(=O)O)C(=O)O)CC2)CCN(CC(=O)[O-])CC1.[177Lu+3] (stereo not shown) [^177Lu-CCZ02017] ({Butanoyl(4-(4-NO2Ph))}-G[ξK](DOTA)G[X1][ξAla(9-anthryl)]-{ξLys(Nα-CO-ξAad)})
Result :: 0.04

Query :: Requested field: Biodistribution: Intestine. Item: COc1ccc(CCCC(=O)NCC(=O)NC(CCCCNC(=O)CN2CCN(CC(=O)[O-])CCN(CC(=O)[O-])CCN(CC(=O)[O-])CC2)C(=O)NCC2CCC(C(=O)NC(Cc3c4ccccc4cc4ccccc34)C(=O)NCCCCC(NC(=O)NC(CCCC(=O)O)C(=O)O)C(=O)O)CC2)cc1.[177Lu+3] (stereo not shown) [^177Lu-HTK03170, reference compound]
Result :: 0.08

Query :: Requested field: Biodistribution: Intestine. Item: COc1ccc(CCCC(=O)NCC(=O)NC(CCCCNC(=O)CN2CCN(CC(=O)[O-])CCN(CC(=O)[O-])CCN(CC(=O)[O-])CC2)CC(=O)NCC2CCC(C(=O)NC(Cc3c4ccccc4cc4ccccc34)C(=O)NCCCCC(NC(=O)NC(CC(F)C(=O)O)C(=O)O)C(=O)O)CC2)cc1.[177Lu+3] (stereo not shown) [^177Lu-CCZ02019]
Result :: 0.08
